target: guanylyl cyclase C (GCC) (human), P25092; experiment: in vivo competitive binding against [68Ga]MLN6907 DP in tumor models with different GCC expression levels; semi-mechanistic model
Sequence (P25092 24-1073 limits assumed): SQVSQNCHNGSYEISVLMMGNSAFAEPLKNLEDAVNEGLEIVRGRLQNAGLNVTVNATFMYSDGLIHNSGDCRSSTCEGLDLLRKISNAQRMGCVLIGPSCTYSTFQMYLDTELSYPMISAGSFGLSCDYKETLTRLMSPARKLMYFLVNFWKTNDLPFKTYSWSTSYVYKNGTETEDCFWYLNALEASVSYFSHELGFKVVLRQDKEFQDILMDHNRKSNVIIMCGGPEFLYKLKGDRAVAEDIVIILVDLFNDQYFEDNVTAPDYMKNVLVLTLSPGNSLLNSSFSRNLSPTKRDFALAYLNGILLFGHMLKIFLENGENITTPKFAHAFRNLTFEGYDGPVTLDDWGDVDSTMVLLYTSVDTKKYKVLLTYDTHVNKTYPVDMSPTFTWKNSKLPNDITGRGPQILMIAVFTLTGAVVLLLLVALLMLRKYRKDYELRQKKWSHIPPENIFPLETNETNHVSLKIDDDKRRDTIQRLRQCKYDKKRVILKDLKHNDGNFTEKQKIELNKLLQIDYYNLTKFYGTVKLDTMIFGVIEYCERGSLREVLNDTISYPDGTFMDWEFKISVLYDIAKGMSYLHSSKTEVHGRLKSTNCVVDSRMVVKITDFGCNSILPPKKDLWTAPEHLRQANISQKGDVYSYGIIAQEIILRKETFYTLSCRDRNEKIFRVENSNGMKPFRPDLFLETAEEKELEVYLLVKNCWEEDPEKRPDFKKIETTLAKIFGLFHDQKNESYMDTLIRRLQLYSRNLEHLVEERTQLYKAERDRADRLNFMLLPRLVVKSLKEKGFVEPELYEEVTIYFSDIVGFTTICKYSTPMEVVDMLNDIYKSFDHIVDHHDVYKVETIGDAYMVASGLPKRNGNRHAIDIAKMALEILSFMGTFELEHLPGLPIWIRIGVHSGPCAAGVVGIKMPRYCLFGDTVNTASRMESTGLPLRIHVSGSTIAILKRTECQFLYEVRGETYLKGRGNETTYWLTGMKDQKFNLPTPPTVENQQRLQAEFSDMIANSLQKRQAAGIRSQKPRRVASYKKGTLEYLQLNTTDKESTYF
pEC50: −log10 of the molar value.
Measure: pEC50

Noted for CCELCCNPACAGCY (modifications not checked) [MLN6907 DSP (drug substance precursor), Formula (VI): DOTA-Ahx-STp(5-18), not radiolabeled] : its pEC50 reads 5.25 to 7.01
